assay target: Bovine trypsin (bovine), P00760
Sequence (P00760 24-246): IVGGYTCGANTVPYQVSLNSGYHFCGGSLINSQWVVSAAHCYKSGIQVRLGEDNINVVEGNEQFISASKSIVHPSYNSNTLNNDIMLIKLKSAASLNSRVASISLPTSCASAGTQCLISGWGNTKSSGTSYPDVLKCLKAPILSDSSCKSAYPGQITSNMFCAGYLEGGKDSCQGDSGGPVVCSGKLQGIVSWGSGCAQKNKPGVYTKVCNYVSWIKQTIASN
test: enzyme inhibition, selectivity profile, Morrison tight-binding fit
assay readout: Ki

Q) Would you kindly share the measured Ki for RQAR (modifications not checked) [RQAR-ketobenzothiazole] ?
A) 0.97 nM
